Collected IC50 values appear next to each entry.
molecular target: Phosphodiesterase 3 (Homo sapiens, UniProt Q14432+Q13370); assay: Inhibition of phosphodiesterase 3 at 1 uM cAMP; type: protein assay

mol_smiles	censoring_sign	IC50, µM
CNc1nc(C(F)(F)F)nc2c1ncn2Cc1ccccc1F	=	380
CNc1nc(C)nc2c1ncn2Cc1ccccc1F.CS(=O)(=O)O	=	250
CCCCNc1ncnc2c1ncn2Cc1ccccc1F.Cl	>	200
CNc1nc(C(F)(F)F)nc2c1ncn2CCc1ccccc1	>	200
Cl.Fc1ccccc1Cn1cnc2c(N3CCCCC3)ncnc21	>	200
CN(C)c1nc(C(F)(F)F)nc2c1ncn2Cc1ccccc1	=	61
